Origin of the recorded values: the supplement of paper PMC6555819

system: RARb homodimer (NR concentration 270 nM); assay: PBM binding z-score (relative to random genomic background probes); higher = stronger binding; sequences stand for … in GC…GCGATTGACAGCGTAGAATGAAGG
metric.name: PBM binding z-score
Give only the figure.

Recorded results for 5 sequences are shown here.
ATATGTAGGTTCAGGGTCATTCAGGTTGGTTCGC	3.58
GCTGCTAGGTCACGTTGGTCAGCTAACGGGTACG	3.68
ATCTCTAGGTAAGACTCAGTTCAGTGAAGAACGC	0.723
ACTATTAGTTGACTTAGGGCCACCGATACGACGC	0.765
CCTAGCAGGCCAATCTGGGTCACTCACGGCTTGA	2.23

Input: Which PBM binding z-score is reported for this sequence? CCTACTGGGCCATCAGGTCTTTGATATCAACGTT
Output: 0.24

Input: Cool, now TCTTGTACATCAATAGAGGTTAAGAAAGTGCGCT
Output: 1.31

Input: Cool, now GCTATTAGTTGAAAGAGCAACCGAATGATTCTCG
Output: -0.533

Input: Cool, now ATATGTAGGTTAGCTGGGGTCGTTCAGACTAGGC
Output: 1.8

Input: Cool, now CAAACTAGGTCACCGGAGGGTCAAAGTCCGCATG
Output: 5.26

Input: Cool, now TCATATAGGTAAAAAGTGAAAGTCGGTGTGGTAA
Output: 0.0434

Input: Cool, now CCTAGTTGGTCAAGGTTACACACGCTATAGGTAC
Output: 2.15

Input: Cool, now CAAACTGGGTCACCGGAAGGTCAAAGTCCGCATG
Output: 5.45

Input: Cool, now TAGCCTAGGTCATGGGCCATTATACCACGCGAAC
Output: 3.25

Input: Cool, now ACTAGTTGGTCAGGTGAGGTCACACACAATTCGG
Output: 4.31

Input: Cool, now ATCGAAAGGTCGAGATGAGTATAGAGAAAGGGAA
Output: 1.97

Input: Cool, now TAGCCTAGGTGATTCAGGGGCCAGTATAGAAAGC
Output: 0.919

Input: Cool, now AGACCAAGGTGATCGTGAGGTCGTTGATACTAAC
Output: 1.51

Input: Cool, now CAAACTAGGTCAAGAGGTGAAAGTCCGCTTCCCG
Output: 4.18

Input: Cool, now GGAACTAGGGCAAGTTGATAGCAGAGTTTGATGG
Output: 1.11

Input: Cool, now ACTATTAGTTGATTTAGGGCAACCGATACGACGC
Output: 0.736

Input: Cool, now ATATGTAGGGTAAGGGTCATTCAGGTTGGTTCGC
Output: 4.19

Input: Cool, now TAGCCTAGCTCATGCGGGCCAGTATAGTGTCGGC
Output: -1.08

Input: Cool, now ATCGAAAGGTCGAGGTGAGTATTGAGAAAGGGAA
Output: 3.11

Input: Cool, now TCTTGTAGATCAATAGGGGTTAAGAAAGTGCGCT
Output: 1.26

* * *

system: PPARg:RXRa 30nM:10nM, anti-RXR (NR concentration 30 nM, RXRa partner concentration 10 nM); assay: PBM binding z-score (relative to random genomic background probes); higher = stronger binding; sequences stand for … in GC…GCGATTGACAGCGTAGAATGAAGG
Some sequences, each annotated with its measured PBM binding z-score.

TCGAGTAGGTTAGGGGCAATCAGAATGGCGTCGA	1.47
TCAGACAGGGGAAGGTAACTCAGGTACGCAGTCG	3.77

Input: Which PBM binding z-score is reported for this sequence? CCTAGCAGGCCATGGTCACTCAAGCATTTCGCTT
Output: -0.855
